testDetails: Antagonist activity at GP2b/3a receptor in New Zealand rabbit platelet-rich plasma assessed as inhibition of U46619-induced platelet aggregation preincubated for 1 min followed by addition of ADP by aggregometer
valueKind: pIC50
pIC50 here is simply -log10 of the concentration when that concentration is written in mol/L.

Q: Give a short answer stating reported pIC50 for `O=C(O)[C@H](Cc1c[nH]c2ccc(OCCCCC3CCNCC3)cc12)NS(=O)(=O)c1ccc(Br)cc1` .
Ans: 3.23

----------
testDetails: Antagonist activity at GP2b/3a receptor in New Zealand rabbit platelet-rich plasma assessed as inhibition of ADP-induced platelet aggregation preincubated for 1 min followed by addition of ADP by aggregometer
Please go through the items and note down their IC50.
Report the value in µM with no unit label.

Q: Give a short answer stating reported IC50 for `O=C(N[C@@H](Cc1c[nH]c2ccc(OCCCCC3CCNCC3)cc12)C(=O)O)c1ccc(F)cc1` .
Ans: 94.4

Q: Give a short answer stating reported IC50 for `O=C(O)[C@H](Cc1c[nH]c2ccc(OCCCCC3CCNCC3)cc12)NS(=O)(=O)c1ccccc1` .
Ans: 95.7

Q: Give a short answer stating reported IC50 for `O=C(N[C@@H](Cc1c[nH]c2ccc(OCCCCC3CCNCC3)cc12)C(=O)O)c1ccc([N+](=O)[O-])cc1` .
Ans: 488

Q: Give a short answer stating reported IC50 for `O=C(N[C@@H](Cc1c[nH]c2ccc(OCCCCC3CCNCC3)cc12)C(=O)O)c1cccc(F)c1` .
Ans: 96.1

Q: Give a short answer stating reported IC50 for `O=C(O)[C@H](Cc1c[nH]c2ccc(OCCCCC3CCNCC3)cc12)NS(=O)(=O)c1ccc([N+](=O)[O-])cc1` .
Ans: 425

Q: Give a short answer stating reported IC50 for `O=C(N[C@@H](Cc1c[nH]c2ccc(OCCCCC3CCNCC3)cc12)C(=O)O)c1cc(Cl)cc(Cl)c1` .
Ans: 86.5

Q: Give a short answer stating reported IC50 for `O=C(O)[C@H](Cc1c[nH]c2ccc(OCCCCC3CCNCC3)cc12)NS(=O)(=O)c1ccc(Br)cc1` .
Ans: 24.8

Q: Give a short answer stating reported IC50 for `O=C(O)[C@H](Cc1c[nH]c2ccc(OCCCCC3CCNCC3)cc12)NS(=O)(=O)c1ccc(F)cc1` .
Ans: 93.1

Q: Give a short answer stating reported IC50 for `Cc1ccc(S(=O)(=O)N[C@@H](Cc2c[nH]c3ccc(OCCCCC4CCNCC4)cc23)C(=O)O)cc1` .
Ans: 108

----------
testDetails: Antagonist activity at GP2b/3a receptor in New Zealand rabbit platelet-rich plasma assessed as inhibition of collagen-induced platelet aggregation preincubated for 1 min followed by addition of ADP by aggregometer
valueKind: pIC50
pIC50 here is simply -log10 of the concentration when that concentration is written in mol/L.

Q: Give a short answer stating reported pIC50 for `O=C(O)[C@H](Cc1c[nH]c2ccc(OCCCCC3CCNCC3)cc12)NS(=O)(=O)c1ccc(Br)cc1` .
Ans: 3.17
